Tested on: DeltatarO mutant
Assay: S. aureus survival, RN4220 and DeltatarO strains – OD600, teichoic acid synthesis inhibitors, primary screen (AID 463173)
Conditions: S. aureus RN4220 wild type/DeltatarO growth, OD600, 18 h, stronger effect = lower value, screened at 18.75 µg/mL (by protocol)
Hit rate of the full screen: of about 52,000 compounds, about 4,300 (8.3%) were called active. What follows is part of a selection rich in actives, with near analogues and random picks from the rest.

COMPOUND | RESULT UNITS | survival
Cc1ccccc1CSc1ncc(Cl)c(C(=O)Nc2nc3ccc(F)cc3s2)n1 | % | 100
COCCN(CCOC)c1ncnc2c1c(-c1ccccc1)cn2-c1ccc(C)c(Cl)c1 | % | 67
Cc1ccccc1Cn1c2ccccc2c2cnn(CC(=O)NCCc3ccccc3)c(=O)c21 | % | 96
N#Cc1nc(-c2ccc(COc3ccc(Cl)cc3)o2)oc1N1CCCCC1 | % | 49
O=C(CO)N/N=C\c1c(F)cccc1Cl | % | 51
COC(=O)C(C)Sc1ncnc2c1c(-c1ccccc1)cn2-c1ccc(F)cc1 (stereo unspecified) | % | 76
CCc1ccc(CNC(=O)c2ccc3c(c2)nc2n3CCCCC2)cc1 | % | 79
COc1ccc(COC(=O)C2=C(C)NC3(O)c4ccccc4C(=O)C23O)cc1 (stereo unspecified) | % | 90
Cc1cccc(CSc2ncc(Cl)c(C(=O)Nc3nc4ccc(F)cc4s3)n2)c1 | % | 33
CCSc1ncc(Cl)c(C(=O)Nc2nc3ccc(OC)cc3s2)n1 | % | 83
COC(=O)c1c(NC(=O)CS(=O)(=O)c2ccc(C)cc2)sc2c1CCCC2 | % | -4
O=c1c2cnn(-c3ccc(Cl)cc3)c2ncn1Cc1ccc(Cl)cc1Cl | % | 102
COC(=O)c1c(NC(=O)CS(=O)(=O)c2ccc(C)cc2)sc2c1CCCCC2 | % | 76
COC(=O)c1c(NC(=O)CCCOc2cccc(C)c2)sc2c1CCC2 | % | 15
COC(=O)c1c(NC(=O)Cc2coc3ccc(C)cc23)sc2c1CCC2 | % | 59
COc1ccc2nc(NC(=O)c3nc(SC(C)C)ncc3Cl)sc2c1 | % | 93
Cc1ccc(CSc2ncc(Cl)c(C(=O)Nc3nc4ccc(C)cc4s3)n2)cc1 | % | 53
Cc1cccc(OCCCC(=O)Nc2sc3c(c2C(N)=O)CCC(C)C3)c1 (stereo unspecified) | % | 73
CCOC(=O)c1c(NC(=O)CS(=O)(=O)c2ccc(C)cc2)sc2c1CCCCC2 | % | 66
COc1ccccc1CNC(=O)CCn1c(=O)c2ccccc2n(CC(=O)Nc2ccc(C)cc2Cl)c1=O | % | 77
CC(=O)c1cccc(NC(=O)C2CCN(c3ncnc4c3nc3n4CCCCC3)CC2)c1 | % | 84
COc1ccc(OCc2ccc(-c3nc(C#N)c(N4CCN(c5cccc(Cl)c5)CC4)o3)o2)cc1 | % | 75
COC(=O)c1ccccc1NC(=O)Cn1c(=O)n(-c2ccc(Cl)cc2)c(=O)c2c(C)c(C)sc21 | % | 86
CCc1ccc(C2N=C(N)Nc3nc4ccccc4n32)cc1 (stereo unspecified) | % | 137
CCCSc1ncc(Cl)c(C(=O)Nc2nc3ccc(C)cc3s2)n1 | % | 49
O=C(NCc1ccc(Cl)cc1)C(=O)NCC(c1cccnc1)N1CCN(c2ccccc2)CC1 (stereo unspecified) | % | 47
CCOc1ccc2nc(NC(=O)c3nc(SC(C)C)ncc3Cl)sc2c1 | % | 41
COCCNC(=O)C(=O)NCC(c1cccnc1)N1CCN(c2ccccc2)CC1 (stereo unspecified) | % | 54
Cc1cccc(-c2nnn3c2nc(NCc2ccccc2)c2ccccc23)c1 | % | 97
COC(=O)c1c(NC(=O)CCCOc2ccc(C(C)(C)C)cc2)sc2c1CCC(C)C2 (stereo unspecified) | % | 28
O=C(NCCc1ccccc1)C(=O)NCC(c1cccnc1)N1CCN(c2ccccc2)CC1 (stereo unspecified) | % | 51
O=C(NCc1cccnc1)C(=O)NCC(c1cccnc1)N1CCN(c2ccccc2)CC1 (stereo unspecified) | % | 53
CCn1c(=O)c(=O)n(CC)c2cc(N3CCCCC3)c(NC(=O)c3ccccc3OC)cc21 | % | 91
COc1ccc2nc(NC(=O)c3nc(SCc4cccc(C)c4)ncc3Cl)sc2c1 | % | 37
COC(=O)c1c(NC(=O)COc2ccc(C)cc2Br)sc2c1CCCC2 | % | 61
Cc1cc(C)c(NC(=O)CCS(=O)(=O)c2cc3c(cc2Cl)NC(=O)CO3)c(C)c1 | % | 80
COc1ccc(CCNCc2c(C(=O)O)c(C)n(Cc3c(F)cccc3Cl)c2C)cc1OC | % | 121
O=C1CN(C(=O)c2ccc(S(=O)(=O)N3CCCCC3)cc2)C(c2ccc(F)cc2)c2cc(Br)ccc2N1 (stereo unspecified) | % | 77
O=C(Nc1nc2ccc(F)cc2s1)c1nc(SCc2ccccc2F)ncc1Cl | % | 48
CC(C)(C)c1cc(C(C)(C)C)c2oc(=O)c(-c3nc4ccccc4[nH]3)cc2c1 | % | 69
CC(=O)c1ccc(NC(=O)CSc2nc(C3CCCC3)nc3c2c(=O)n(C)c(=O)n3C)cc1 | % | 78

* * *

System: DeltatarO mutant
Assay: S. aureus survival, RN4220 and DeltatarO strains – OD600, teichoic acid synthesis inhibitors, primary screen (AID 463173)
Conditions: S. aureus RN4220 wild type/DeltatarO growth, OD600, 18 h, stronger effect = lower value, screened at 18.75 µg/mL (by protocol)
Screen size: about 52,000 compounds; about 4,300 (8.3%) were called active. The sample holds actives, similar compounds and a random draw of the others, so the mix is not that of the screen.
// assign Y if survival falls strictly below 70%, else N (ties count as N)

RECORD SMILES | TARGET | ASSIGNED LABEL
Cc1cc(C)cc(NS(=O)(=O)c2ccc(-n3cccn3)cc2)c1 | DeltatarO mutant | N
COc1ccc(N2CCN(CCN3CCCCC3)CC2)cc1 | DeltatarO mutant | N
CCOC(=O)c1cc(-c2ccc(OC)cc2)nn1Cc1ccccc1 | DeltatarO mutant | Y
CCN(C1CCCCC1)S(=O)(=O)c1ccc(S(=O)(=O)NC2CC2)cc1 | DeltatarO mutant | N
COc1ccc(OCc2nc(-c3ccc(OC)c(OC)c3)no2)cc1 | DeltatarO mutant | Y
COc1ccc(-c2noc(CN(C)S(=O)(=O)c3c(C)cc(C)cc3C)n2)cc1OC | DeltatarO mutant | Y

* * *

System: DeltatarO mutant
Experiment: S. aureus survival, RN4220 and DeltatarO strains – OD600, teichoic acid synthesis inhibitors, primary screen (AID 463173)
Conditions: S. aureus RN4220 wild type/DeltatarO growth, OD600, 18 h, stronger effect = lower value, screened at 18.75 µg/mL (by protocol)
Out of some 52,000 compounds screened, about 4,300 (8.3%) were called active. What follows is part of a selection rich in actives, with near analogues and random picks from the rest.

MOLECULE | survival (%)
COc1ccc(-c2nnn3c2nc(N2CCCC(C)C2)c2ccccc23)cc1 (stereo not given) | -3
Cc1cc(N2CCN(C)CC2)nc2ccc(NC(=O)Nc3ccc(F)cc3F)cc12 | 73
COc1cc(OC)c(OC)cc1CN1CCN(S(=O)(=O)c2ccc(NC(C)=O)cc2)CC1 | 79
Clc1ccc(-c2nnn3c2nc(N2CCCCC2)c2ccccc23)cc1 | 25
CCc1cccc(CC)c1N(COC)C(=O)Cn1c(CC)nc2ccccc21 | 69
CCOc1ccc(NC(=O)c2c(NC(=O)c3ccco3)sc3c2CCC(C(C)(C)C)C3)cc1 (stereo not given) | 68
Brc1cccc(-c2nnn3c2nc(N2CCCCC2)c2ccccc23)c1 | 62
CCOC(=O)c1cccc(NC(=O)CCS(=O)(=O)c2ccc3c(c2)CC(=O)N3C)c1 | 102
Cc1ccc(S(=O)(=O)N2CCC(C(=O)NCc3ccccc3Cl)CC2)cc1 | 74
CC1CCN(c2nc3c(-c4cccc(Br)c4)nnn3c3ccccc23)CC1 | 104

* * *

Tested on: DeltatarO mutant
Experiment: S. aureus survival, RN4220 and DeltatarO strains – OD600, teichoic acid synthesis inhibitors, primary screen (AID 463173)
Conditions: S. aureus RN4220 wild type/DeltatarO growth, OD600, 18 h, stronger effect = lower value, screened at 18.75 µg/mL (by protocol)
About 4,300 (8.3%) of roughly 52,000 compounds were called active. What follows is part of a selection rich in actives, with near analogues and random picks from the rest.
PARAMETER: survival (%)

COMPOUND | OBSERVED RESULT
COCCNC(=O)C1CCN(S(=O)(=O)c2ccc3c(c2)CCCN3C(C)=O)CC1 | 85
Cc1nc2c(C(=O)NCCc3ccccc3)c[nH]n2c(=O)c1Cc1ccccc1F | -13
Cc1nc2nc(NC(=O)c3ccc(Cl)cc3)[nH]n2c(=O)c1Cc1ccccc1 | 105
CC1(C)CC2CC(C)(CN2C(=O)c2cc(-c3ccccc3)on2)C1 (stereo not given) | 99
CCOc1ccc(-c2cc(C(=O)NCCc3ccc(C)cc3)c3ccccc3n2)cc1 | 52
Nc1c(C(=O)Nc2ccccc2)sc2nc3c(cc12)CN(Cc1ccccc1)CC3 | 63
Cc1ccc(NC(=O)c2sc3nc4c(cc3c2N)CN(Cc2ccccc2)CC4)cc1 | 110
O=C1CN(C(=O)Nc2ccccc2Cl)C(c2ccccc2)c2c(sc3c2CCCC3)N1 (stereo not given) | 73
COc1ccc(CCNC(=O)c2c[nH]n3c(=O)c(Cc4ccccc4Cl)c(C)nc23)cc1OC | 32
COc1cccc(NC(=O)C(Cc2ccccc2)NS(=O)(=O)c2ccc3c(c2)c(=O)n(C)c(=O)n3C)c1 (stereo not given) | 79
CCOc1ccc(-c2cc(C(=O)NCc3ccc(OC)cc3)c3c(-c4ccc(F)cc4)[nH]nc3n2)cc1 | 77
CCOc1ccc(NC(=O)C2CCCN(c3cnccn3)C2)cc1 (stereo not given) | 86
COc1ccc(OC)c(N=c2oc3cc(O)ccc3cc2C(=O)Nc2ccccn2)c1 | 70
COc1ccc(Nc2cc(C(=O)NCc3cccs3)c3ccccc3n2)cc1 | 131
COc1ccc(CCNC(=O)c2cc(-c3ccccc3)nc3ccccc23)cc1OC | 58
COc1ccc(CCNC(=O)c2ccc(Cn3c(=O)c4ccccc4n(Cc4ccccc4Cl)c3=O)cc2)cc1OC | 80
CCOc1ccc(-c2cc(C(=O)NCc3ccc(C)cc3)c3ccccc3n2)cc1 | 87
COc1ccc(Nc2cc(C(=O)NCc3ccccc3OC)c3ccccc3n2)cc1 | -5
CCc1ccc(NC(=O)c2sc3nc4c(cc3c2N)CN(CC)CC4)cc1 | 49
COc1ccc(-c2cc(C(=O)NCCc3ccc(OC)c(OC)c3)c3ccccc3n2)cc1 | 48
